# reported.conditions: in n-pentanol, 308.15 K
endpoint.label: solubility (mole fraction)
Output: the number by itself.

The reported value for Nc1ccnc(=O)[nH]1 in terms of solubility (mole fraction) is 0.000254

###

# reported.conditions: in n-butanol, 293.15 K
endpoint.label: solubility (mole fraction)
Output: the number by itself.

The reported value for Nc1ccnc(=O)[nH]1 in terms of solubility (mole fraction) is 0.000193

###

# reported.conditions: in n-propanol, 313.15 K
endpoint.label: solubility (mole fraction)
Output: the number by itself.

The reported value for Nc1ccnc(=O)[nH]1 in terms of solubility (mole fraction) is 0.000373

###

# reported.conditions: in n-pentanol, 323.15 K
endpoint.label: solubility (mole fraction)
Output: the number by itself.

The reported value for Nc1ccnc(=O)[nH]1 in terms of solubility (mole fraction) is 0.000369
